Values of pIC50 for PDE1A (Homo sapiens, UniProt P54750), collected from a number of published sources:
pIC50: −log10 of the molar value.

Completed entries (count: 3):
- CC[C@@]12C=C(c3nc(C)no3)n3c4c(c5c(S(=O)(=O)NC)cccc53)CCN(CCC1)[C@H]42: 4.00 to 4.70
- CCOc1ncccc1-c1cc(NCc2cccc3cncn23)c2c(C(C)C)nc(C)n2n1: 7.21
- CC[C@@]12C=C(c3nc(C)c(C4CC4)o3)n3c4c(c5ccccc53)CCN(CCC1)[C@H]42: ≥ 6.00

Ask | Lab note: PDE1A (Homo sapiens, UniProt P54750) assay, enter pIC50 for CN(Cc1ccc(Cl)cc1)c1nc2c(C3CCCC3)nn(C)c2c(=O)[nH]1 here
Reply | > 7.00

Ask | For PDE1A (Homo sapiens, UniProt P54750), give pIC50 of the listed molecule: CCCc1nn(C)c2c(=O)[nH]c(N(Cc3cccc(N4CCOCC4)c3)CC(C)CCC)nc12 (centres unmarked)
Reply | > 7.00

Ask | Fill in pIC50 for CCOc1ncccc1-c1ccn2c(C3CCC3)nc(C)c2n1 tested with PDE1A (Homo sapiens, UniProt P54750).
Reply | 5.81

Ask | Print PDE1A (Homo sapiens, UniProt P54750) pIC50 for Cc1cn2c(C3CCOCC3)ncc2c(=O)n1Cc1ccc(O)cc1 .
Reply | 6.40

Ask | Answer briefly: pIC50 recorded on PDE1A (Homo sapiens, UniProt P54750) for CC[C@@]12C=C(c3noc(C4CCN(C(=O)OC(C)(C)C)CC4)n3)n3c4c(c5ccccc53)CCN(CCC1)[C@H]42
Reply | < 4.00
